Molecular target: T1, recombinant human OX40-his (Sino Biological, Cat#:10481-H03H) (human, UniProt P43489 29-214)
T1 construct: bought protein; also called hOX40-his; not shown: His tag
T1 sequence: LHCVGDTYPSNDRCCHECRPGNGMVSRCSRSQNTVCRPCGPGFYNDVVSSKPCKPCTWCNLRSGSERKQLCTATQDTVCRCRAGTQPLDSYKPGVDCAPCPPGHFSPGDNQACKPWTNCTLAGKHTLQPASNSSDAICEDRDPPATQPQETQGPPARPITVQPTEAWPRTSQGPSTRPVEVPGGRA
Assay: ELISA on coated human OX40-His, OD450
Metric Name: EC50 (read off the curve)

Would you please look over these solved cases?
Report EC50 (read off the curve) for chimeric antibody 71H8 (antibody, human IgG1, kappa, V domains shown, mouse variable regions with human IgG1/kappa constant regions) VH: QVQLQQSGAELVKPGASVKMSCKASGYTFTSYWITWVKQRPGQGLEWIGDIYPGSGSTNQNEKFKSKATLTVDTSSSTAYMQLSSLTSEDSAVYYCAKLRPYYFVYWGQGTTLTVSS VL: DIQMTQTPSSLSASLGDRVTISCRASQDISNYLNWYQQKPDGTVKLLIYYTSRLLSGVPSRFSGSGSGTDYSLTISNLEQEDIATYFCQQGNTLPLTFGAGTKLELKR please.
~3 ng/mL

Would you kindly share the measured EC50 (read off the curve) for 71H8-VH3VL3 (antibody, human IgG1, kappa, V domains shown, humanized; also called 71H8-H3L3) VH: QVQLVQSGAEVKKPGASVKVSCKVSGYTFTSYWITWVRQRPGQGLEWIGDIYPGSGSTNQNEKFKSRVTLTVDTSTDTAYMELSSLRSEDTAVYYCATLRPYYFVYWGQGTLVTVSS VL: DIQMTQSPSSLSASVGDRVTITCRASQDISNYLNWYQQKPGKTVKLLIYYTSRLLSGVPSRFSGSGSGTDYTLTISSLQPEDFATYFCQQGNTLPLTFGQGTRLEIKR ?
~3 ng/mL

# evaluate next
Fill blank: measured EC50 (read off the curve) of the binder 71H8-VH2VL2 (antibody, human IgG1, kappa, V domains shown, humanized; also called 71H8-H2L2) VH: QVQLVQSGAEVKKPGASVKVSCKVSGYTFTSYWITWVRQRPGKGLEWMGDIYPGSGSTNQNEKFKSRVTMTVDTSTDTAYMELSSLRSEDTAVYYCATLRPYYFVYWGQGTLVTVSS VL: DIQMTQSPSSLSASVGDRVTITCRASQDISNYLNWYQQKPGKTPKLLIYYTSRLLSGVPSRFSGSGSGTDYTLTISSLQPEDFATYYCQQGNTLPLTFGQGTRLEIKR is ____.
~3 ng/mL
